Below is a list of entries, each paired with its recorded Cell viability, WT value.
Tested on: ARID1A-WT HCT116 cells
Assay notes: Drug library screen, cell viability (CellTiter-Glo)
Format: cell-based, human

Reference set (3 entries):
{"columns": ["Compound", "Cell viability, WT"],
 "data": [
  ["Cl.Cl.Cl.Cl.Cl.Cl.Cl.Cl.c1cc(CN2CCCNCCNCCCNCC2)ccc1CN1CCCNCCNCCCNCC1 [AMD3100 octahydrochloride]", 102.6908],
  ["Cn1cc(/C=C2\\C(=O)Nc3ccc(S(N)(=O)=O)cc32)c2ccccc21", 58.62],
  ["Nc1cccc(-c2cc3c(Oc4cccc(O)c4)ncnc3[nH]2)c1", 30.07]
]}

Using the record for CN([C@@H](Cc1ccc(OS(=O)(=O)c2cccc3cnccc23)cc1)C(=O)N1CCN(c2ccccc2)CC1)S(=O)(=O)c1cccc2cnccc12 , report its Cell viability, WT.
113.3229

# Cell viability, WT lookup, item CN(C)CC(=O)Nc1ccc2[nH]c(=O)c3ccccc3c2c1
18.28

// lookup Cell viability, WT for CN(C)S(=O)(=O)c1ccc2c(c1)/C(=C/c1cc3c([nH]1)CCCC3)C(=O)N2
124.1846

The reported numbers originate from patent US20220087987A1.
